test system: HL-60; assay: Cytotoxicity against human HL60 cells by MTT assay; format: functional, cell-based
I'd appreciate it if you could supply pIC50 values for the items below.
Conceptually, pIC50 converts a concentration in mol/L into minus its log10.

For the compound C=C1C(=O)[C@]23[C@H](OC(=O)CN)[C@@H]1CC[C@H]2[C@@]12CO[C@]3(O)[C@@H](O)[C@@H]1C(C)(C)CC[C@@H]2OS(=O)(=O)CCC , give its reported pIC50. 4.70

For the compound C=C1C(=O)[C@]23[C@H](OC(=O)CNC(=O)/C=C/C(=O)O)[C@@H]1CC[C@H]2[C@@]12CO[C@]3(O)[C@@H](O)[C@@H]1C(C)(C)CC[C@@H]2OC(C)=O , give its reported pIC50. 6.08

For the compound C=C1C(=O)[C@]23[C@H](OC(=O)CN)[C@@H]1CC[C@H]2[C@@]12CO[C@]3(O)[C@@H](O)[C@@H]1C(C)(C)CCC2=O , give its reported pIC50. 4.61
